Let's look at some pKi data for Beta-1 adrenergic receptor (Rattus norvegicus, UniProt P18090) that I collected from the literature.
pKi: −log10 of the molar value.

Illustrative cases are given below, each with its answer.
| Compound | Measurement label | Readout value |
| --- | --- | --- |
| Cn1ccc2cc(NC(=O)Nc3cccnc3)ccc21 | pKi | < 5.00 |
| N[C@H](CCS(=O)O)C(=O)O | pKi | < 5.00 |
| COc1ccccc1N1CCN(CCN(C(=O)C2CCCCC2)c2ccccn2)CC1 | pKi | < 5.00 |

Record N[C@@H](CS)C(=O)O , field pKi: < 5.00

Record N[C@H](CCS(=O)(=O)O)C(=O)O , field pKi: < 5.00

Record CC(C)CNCC(O)COc1cccc2ccccc12 (stereo not given) , field pKi: 8.55

Record COc1cc(N)c(Cl)cc1C(=O)CCC1CCN(CCNS(C)(=O)=O)CC1 , field pKi: < 5.00

Record COc1ccccc1OCCNCC(O)c1ccc(C)c(S(N)(=O)=O)c1 (stereo not given) , field pKi: 8.36
